# Tested on: EPHB6;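 further: KINOMEscan kinase panel screen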
# Condition Description: concentration: 1 μM, replicates: in singlicate; n = 1
Recorded Endpoint: %Inh (%)
# value in %; strip the unit string

Molecule: COc1ccc(CSc2nnc(-c3ccc4ncsc4c3)o2)cc1C(F)(F)F
Unit Name: %
%Inh: 0

Qu. Specify measured %Inh for COc1ccc(Nc2nccc(N3CCC(NC(=O)C(C)c4ccc(Cl)cc4)CC3)n2)cc1 (stereo not drawn) [GSK1379812] .
Ans. 100

Qu. Specify measured %Inh for Cc1ccccc1Cn1ccn2c(=O)cc(N3CCOCC3)nc12 [GSK2269905] .
Ans. 0

Qu. Specify measured %Inh for CCCCc1nn2ncccc2c1-c1ccnc(NC2CC2)n1 [GW684374] .
Ans. 39

Qu. Specify measured %Inh for Cl.Cl.Cl.N#Cc1ccc(CCNc2nccc(-c3cccc(CN4CCNCC4)c3)n2)cc1 [GSK2137462] .
Ans. 1

Qu. Specify measured %Inh for COc1ccc(Nc2nccc(N3CCC(NC(=O)C(C)c4ccc(Cl)cc4)C3)n2)cc1 (stereo not drawn) [GSK1379735] .
Ans. 18

Qu. Specify measured %Inh for O=C(Nc1n[nH]c2cc(-c3ccsc3)ccc12)C1CC1 [SB-732932] .
Ans. 18

Qu. Specify measured %Inh for Cc1ccc(NC(=O)Nc2ccccc2)cc1-c1ccc(C(=O)Nc2ccncc2)cc1 [GSK1398471] .
Ans. 12

Qu. Specify measured %Inh for CSc1ccc(-c2nc3n(c2-c2ccncc2)CCC3)cc1 [SKF-105561] .
Ans. 15
